# tgt: TBK1 (Homo sapiens, UniProt Q9UHD2)
# Construct: TBK1 and IKKε were expressed and purified as full length recombinant proteins
# Sequence (Q9UHD2 whole entry): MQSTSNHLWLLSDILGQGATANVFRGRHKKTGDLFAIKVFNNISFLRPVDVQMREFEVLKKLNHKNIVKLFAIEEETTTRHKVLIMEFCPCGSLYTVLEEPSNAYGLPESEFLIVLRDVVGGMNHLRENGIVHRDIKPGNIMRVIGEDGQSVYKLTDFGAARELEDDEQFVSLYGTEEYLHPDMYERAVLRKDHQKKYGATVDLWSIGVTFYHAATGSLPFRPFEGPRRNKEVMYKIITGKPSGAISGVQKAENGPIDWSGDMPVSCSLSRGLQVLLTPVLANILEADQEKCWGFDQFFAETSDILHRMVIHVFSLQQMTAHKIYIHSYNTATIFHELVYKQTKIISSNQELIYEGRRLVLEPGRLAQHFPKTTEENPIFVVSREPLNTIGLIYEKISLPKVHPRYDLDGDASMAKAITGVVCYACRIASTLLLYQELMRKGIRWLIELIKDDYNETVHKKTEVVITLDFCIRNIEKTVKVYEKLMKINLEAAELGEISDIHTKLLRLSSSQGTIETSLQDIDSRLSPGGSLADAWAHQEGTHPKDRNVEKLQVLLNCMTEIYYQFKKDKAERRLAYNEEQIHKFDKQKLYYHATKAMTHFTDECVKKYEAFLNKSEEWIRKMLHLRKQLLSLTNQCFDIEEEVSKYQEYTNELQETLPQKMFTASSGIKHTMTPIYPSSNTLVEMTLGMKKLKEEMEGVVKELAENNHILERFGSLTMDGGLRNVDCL
# assay overview: TR-FRET enzymatic activity assay, TBK1; further: full length recombinant TBK1 at 2.5 nM
Threshold 40 nM. IC50 below it: class 1. IC50 at it or above: class 0.

> print(dat)
                                    compound  assigned.class
 1  N#Cc1cc(-c2cc(NC(=O)C3CC3)ncn2)ccc1O[C@H]1CCN(C(=O)[C@@H](O)CO)C[C@H]1F         class 1
 2  N#Cc1cc(-c2ccnc(NC(=O)C3CC3)c2)ccc1O[C@H]1CCN(C(=O)[C@@H]2CCC(=O)N2)CC1(F)F         class 1
 3  N#Cc1cc(-c2ccnc(NC(=O)[C@@H]3C[C@H]3CO)c2)ccc1OC1CCOCC1 (relative stereo)         class 0
 4  N#Cc1cc(-c2ccnc(NC(=O)C3CC3)c2)ccc1N1CC[C@@H](O)C1         class 0
 5  N#Cc1cc(-c2cc(NC(=O)C3CC3)ncn2)ccc1OC1CCOCC1         class 0
 6  Cn1cc([C@@H]2C[C@H]2C(=O)Nc2cc(-c3ccc(O[C@H]4CCN(C(=O)CO)C[C@H]4F)c(C#N)c3)ccn2)cn1 [Example 90]         class 1
 7  Cn1ccc([C@H]2C[C@@H]2C(=O)Nc2cc(-c3ccc(O[C@H]4CCN(C(=O)CO)CC4(F)F)c(C#N)c3)ccn2)n1         class 1
 8  CC(Oc1ccc(-c2cc(NC(=O)C3CC3)ncn2)cc1C#N)C(F)(F)F (stereo not drawn)         class 0
 9  N#Cc1cc(-c2ccnc(NC(=O)C3CC3c3c[nH]cn3)c2)ccc1O[C@H]1CCN(C(=O)CO)C[C@H]1F (stereo partly drawn)         class 1
10  N#Cc1cc(-c2ccnc(NC(=O)[C@H]3C[C@@H]3C3CC3)c2)ccc1OC1CCOCC1 (relative stereo)         class 0
11  N#Cc1cc(-c2cc(NC(=O)C3CC3)ncn2)ccc1O[C@H]1CCNCC1(F)F         class 0
12  N#Cc1cc(-c2cc(NC(=O)C3CC3)ncn2)ccc1O[C@@H]1CCN(C(=O)CO)C[C@H]1F         class 0
13  N#Cc1cc(-c2ccnc(NC(=O)[C@@H]3C[C@@H]3C(=O)O)c2)ccc1O[C@H]1CCN(C(=O)CO)C[C@H]1F         class 0
14  N#Cc1cc(-c2ccnc(NC(=O)[C@@H]3C[C@H]3F)c2)ccc1O[C@H]1CCN(C(=O)CO)C[C@H]1F         class 1
15  N#Cc1cc(-c2ccnc(NC(=O)[C@H]3C[C@@H]3[N+](=O)[O-])c2)ccc1OC1CCOCC1 (relative stereo)         class 0

====

# tgt: TBK1 (Homo sapiens, UniProt Q9UHD2)
# Construct: TBK1 and IKKε were expressed and purified as full length recombinant proteins
# assay overview: TR-FRET enzymatic activity assay, TBK1; further: full length recombinant TBK1 at 2.5 nM
Below, each entry is listed alongside its reported IC50.
readout label: IC50 (nM)

> print(dat)
                                   compound  readout.label  value.prefix  measured.value
1  N#Cc1cc(-c2ccnc(NC(=O)C3(O)CC3)c2)ccc1OC1CCOCC1           IC50             >            1000
2  C[C@H]1CCCN1c1ccc(-c2ccnc(NC(=O)C3CC3)c2)cc1C#N           IC50             =            20.3
3  N#Cc1cc(-c2ccnc(NC(=O)[C@@H]3C[C@H]3c3ccc(C4CC4)nc3)c2)ccc1O[C@H]1CCN(C(=O)CO)CC1(F)F           IC50             =             8.1
4  CC1CC1C(=O)Nc1cc(-c2ccc(O[C@H]3CCN(C(=O)CO)C[C@H]3F)c(C#N)c2)ccn1 (some centres unmarked)           IC50             =             8.9
5  N#Cc1cc(-c2ccnc(NC(=O)C3CC3C(F)(F)F)c2)ccc1O[C@H]1CCN(C(=O)CO)C[C@H]1F (some centres unmarked)           IC50             =            28.3
6  N#Cc1cc(-c2ccnc(NC(=O)[C@H]3[C@@H]4CNC[C@@H]43)c2)ccc1OC1CCOCC1           IC50             =             628
7  N#Cc1cc(-c2cc(NC(=O)C3CC3)ncn2)ccc1O[C@@H]1CCN(C(=O)CO)CC1(F)F           IC50             =             317
8  C[C@H](O)C(=O)N1CC[C@H](Oc2ccc(-c3ccnc(NC(=O)C4CC4)c3)cc2C#N)C(F)(F)C1           IC50             =            10.2
